target.or.test.system: human muscarinic M4 receptor (Homo sapiens)
Construct: expressed in transfected cells
Sequence (P08173 whole entry): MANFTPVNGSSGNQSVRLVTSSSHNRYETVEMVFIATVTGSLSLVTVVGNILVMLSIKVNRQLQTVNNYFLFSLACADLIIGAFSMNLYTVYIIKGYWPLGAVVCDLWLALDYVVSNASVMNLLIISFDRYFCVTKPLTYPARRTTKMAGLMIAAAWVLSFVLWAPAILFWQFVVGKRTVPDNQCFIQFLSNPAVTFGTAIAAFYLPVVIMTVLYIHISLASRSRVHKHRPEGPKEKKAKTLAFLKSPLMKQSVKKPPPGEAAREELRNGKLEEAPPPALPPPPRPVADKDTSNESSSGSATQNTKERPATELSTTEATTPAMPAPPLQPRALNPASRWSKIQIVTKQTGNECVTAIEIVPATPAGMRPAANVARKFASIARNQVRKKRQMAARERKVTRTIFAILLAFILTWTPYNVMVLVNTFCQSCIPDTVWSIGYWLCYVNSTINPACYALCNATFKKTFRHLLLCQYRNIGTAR
procedure.details: Alphascreen Surefire phospho-ERK1/2 functional assay, M4
Assay type: cell-based
condition.notes: CHO cells stably expressing human M4; phospho-ERK1/2; read-out: pEC50 M4 (converted)
recorded.endpoint: log10(EC50) (log10 of the value in nM)
Field: value | Transform: log10 | Quantity: EC50 | Unit: nM

Tell me reported log10(EC50) for CCc1noc(C2CC3(CCN(C4CCC5(CC4)C(=O)Nc4ccccc45)C3)C2)n1 (single isomer, unassigned) [26-3 Isomer 1] , tested with human muscarinic M4 receptor (Homo sapiens).
1.46

API: value(readout= log10(EC50), system= human muscarinic M4 receptor (Homo sapiens), query= Cc1ccc(C2(C#N)CCC(N3CCC4(CC(c5nc(C)no5)C4)C3)CC2)nc1 (single isomer, unassigned) [21-5 Isomer 2] )
3.10

Could you share what log10(EC50) was measured for Cc1noc(C2CC3(CCN(C4CCC(C#N)(c5ccccc5F)CC4)C3)C2)n1 (single isomer, unassigned) [21-2 Isomer 3] , tested on human muscarinic M4 receptor (Homo sapiens)?
1.79

Form field: log10(EC50) recorded for CCOC(=O)N1CCCN(C2CCC(C#N)(c3ccccn3)CC2)CC1 (mixture of isomers) [3-11 mixture of isomers] with human muscarinic M4 receptor (Homo sapiens) (enter value)
2.59

Reported log10(EC50) for human muscarinic M4 receptor (Homo sapiens), given CCOC(=O)N1CCCN(C2CCC3(CC2)C(=O)Nc2cc(OC)ccc23)CC1 (single isomer, unassigned) [4-11 isomer 2] ?
2.49
